System: Mima polymorpha
Experiment: standard plate dilution method, Mima polymorpha
Assay type: cell-based
Set-up: key: +: active; -: inactive
Settings: agar plates, 1 to 100 milligrams/liter
Observable: Microorganism MP (growth inhibition)

{"columns": ["Compound", "Experimental target", "Observable", "Measured result"],
 "data": [
  ["Cc1ccc2c(=O)c(C(=O)O)cn3c2c1OCC3C (stereo not drawn)", "Mima polymorpha", "Microorganism MP (growth inhibition)", "+"],
  ["CC1COc2c(F)ccc3c(=O)c(C(=O)O)cn1c23 (stereo not drawn)", "Mima polymorpha", "Microorganism MP (growth inhibition)", "-"],
  ["CCOC(=O)c1cn2c3c(c(C)ccc3c1=O)OCC2C (stereo not drawn) [Example 39 (ester)]", "Mima polymorpha", "Microorganism MP (growth inhibition)", "-"],
  ["Cc1cc(C)c2c(=O)c(C(=O)O)cn3c2c1OCC3C (stereo not drawn)", "Mima polymorpha", "Microorganism MP (growth inhibition)", "+"],
  ["COc1cc2c3c(c1)c(=O)c(C(=O)O)cn3C(C)CO2 (stereo not drawn)", "Mima polymorpha", "Microorganism MP (growth inhibition)", "-"],
  ["Cc1c(Cl)cc2c(=O)c(C(=O)O)cn3c2c1OCC3C (stereo not drawn)", "Mima polymorpha", "Microorganism MP (growth inhibition)", "+"],
  ["CCOC(=O)c1cn2c3c(c(C)cc(C)c3c1=O)OCC2C (stereo not drawn) [Example 42 (ester)]", "Mima polymorpha", "Microorganism MP (growth inhibition)", "-"],
  ["CC1COc2ccc([N+](=O)[O-])c3c(=O)c(C(=O)O)cn1c23 (stereo not drawn)", "Mima polymorpha", "Microorganism MP (growth inhibition)", "-"],
  ["CC1COc2c(Cl)ccc3c(=O)c(C(=O)O)cn1c23 (stereo not drawn)", "Mima polymorpha", "Microorganism MP (growth inhibition)", "+"]
]}

Entry source: patent US3984548A
